- STUDY_SYSTEM: Prostaglandin G/H synthase 1 (Mus musculus, UniProt P22437)
- Sequence (P22437 whole entry): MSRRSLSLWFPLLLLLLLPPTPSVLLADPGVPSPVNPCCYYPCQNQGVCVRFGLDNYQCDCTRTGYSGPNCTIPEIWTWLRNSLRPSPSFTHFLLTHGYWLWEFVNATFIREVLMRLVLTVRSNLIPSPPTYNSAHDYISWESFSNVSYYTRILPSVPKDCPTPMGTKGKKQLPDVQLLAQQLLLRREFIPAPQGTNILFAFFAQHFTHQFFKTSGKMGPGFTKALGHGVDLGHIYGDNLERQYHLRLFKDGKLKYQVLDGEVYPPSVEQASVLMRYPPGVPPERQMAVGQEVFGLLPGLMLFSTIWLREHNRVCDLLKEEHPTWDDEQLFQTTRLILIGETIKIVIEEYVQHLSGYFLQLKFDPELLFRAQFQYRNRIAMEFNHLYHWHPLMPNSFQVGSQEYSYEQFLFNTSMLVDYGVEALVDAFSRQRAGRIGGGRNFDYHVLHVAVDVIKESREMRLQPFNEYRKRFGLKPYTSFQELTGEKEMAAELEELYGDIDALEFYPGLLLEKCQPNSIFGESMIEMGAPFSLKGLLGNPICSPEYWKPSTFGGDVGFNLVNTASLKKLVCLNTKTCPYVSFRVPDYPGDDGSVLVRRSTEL
- ASSAY_COMMENT: Inhibition of COX-1-mediated PGE2 production in arachidonic acid-stimulated mouse J774 cells incubated for 15 mins prior to arachidonic acid-challenge by radioimmunoassay
Answer each item with its documented IC50.

In plain terms, Cc1c(CC(=O)OCCO[N+](=O)[O-])cc(-c2ccc(S(C)(=O)=O)cc2)n1-c1cccc(F)c1 has a documented IC50 of > 10 µM

The molecule CSc1ccc(-n2c(-c3ccc(S(C)(=O)=O)cc3)cc(CC(=O)OCCO)c2C)cc1 showed IC50 equal to 3.18 µM

IC50 in this record for Cc1c(CC(=O)OCCCO[N+](=O)[O-])cc(-c2ccc(S(C)(=O)=O)cc2)n1-c1ccccc1 : > 10 µM

Summary for this molecule, COc1ccc(-n2c(-c3ccc(S(C)(=O)=O)cc3)cc(CC(=O)OCCO[N+](=O)[O-])c2C)cc1 : IC50 is 6.4 µM

Form: molecule = Cc1c(CC(=O)OCCCO[N+](=O)[O-])cc(-c2ccc(S(C)(=O)=O)cc2)n1-c1ccc(F)cc1 ; IC50 = > 10 µM

Reported IC50 for Cc1c(CC(=O)OCCCO)cc(-c2ccc(S(C)(=O)=O)cc2)n1-c1ccc(F)cc1 was > 10 µM

IC50 for Cc1c(CC(=O)O)cc(-c2ccc(S(C)(=O)=O)cc2)n1-c1ccccc1 is > 10 µM

Per the record, CSc1ccc(-n2c(-c3ccc(S(C)(=O)=O)cc3)cc(CC(=O)OCCO[N+](=O)[O-])c2C)cc1 has IC50 of > 10 µM

The measured IC50 associated with COc1ccc(-n2c(-c3ccc(S(C)(=O)=O)cc3)cc(CC(=O)OCCCO)c2C)cc1 reads > 10 µM

* * *

- STUDY_SYSTEM: Prostaglandin G/H synthase 1 (Mus musculus)
- ASSAY_COMMENT: Inhibition of COX-1-mediated PGE2 production in arachidonic acid-stimulated mouse J774 cells at 1 uM incubated for 15 mins prior to arachidonic acid-challenge by radioimmunoassay
- Assay type: cell-based
ASSAY_METRIC: inhibition (%)
// note: answer is a bare numeric in %

Prostaglandin G/H synthase 1 (Mus musculus) inhibition of Cc1c(CC(=O)OCCCO[N+](=O)[O-])cc(-c2ccc(S(C)(=O)=O)cc2)n1-c1cccc(F)c1 is 50

COc1ccc(-n2c(-c3ccc(S(C)(=O)=O)cc3)cc(CC(=O)OCCO[N+](=O)[O-])c2C)cc1 tested on Prostaglandin G/H synthase 1 (Mus musculus) gave inhibition: 30

Case COc1ccc(-n2c(-c3ccc(S(C)(=O)=O)cc3)cc(CC(=O)OCCCO[N+](=O)[O-])c2C)cc1 , Prostaglandin G/H synthase 1 (Mus musculus), inhibition recorded as 0

Observed inhibition on Prostaglandin G/H synthase 1 (Mus musculus), entry CSc1ccc(-n2c(-c3ccc(S(C)(=O)=O)cc3)cc(CC(=O)OCCO)c2C)cc1 , equals 40

* * *

- STUDY_SYSTEM: Prostaglandin G/H synthase 1 (Homo sapiens, UniProt P23219)
- Sequence (P23219 whole entry): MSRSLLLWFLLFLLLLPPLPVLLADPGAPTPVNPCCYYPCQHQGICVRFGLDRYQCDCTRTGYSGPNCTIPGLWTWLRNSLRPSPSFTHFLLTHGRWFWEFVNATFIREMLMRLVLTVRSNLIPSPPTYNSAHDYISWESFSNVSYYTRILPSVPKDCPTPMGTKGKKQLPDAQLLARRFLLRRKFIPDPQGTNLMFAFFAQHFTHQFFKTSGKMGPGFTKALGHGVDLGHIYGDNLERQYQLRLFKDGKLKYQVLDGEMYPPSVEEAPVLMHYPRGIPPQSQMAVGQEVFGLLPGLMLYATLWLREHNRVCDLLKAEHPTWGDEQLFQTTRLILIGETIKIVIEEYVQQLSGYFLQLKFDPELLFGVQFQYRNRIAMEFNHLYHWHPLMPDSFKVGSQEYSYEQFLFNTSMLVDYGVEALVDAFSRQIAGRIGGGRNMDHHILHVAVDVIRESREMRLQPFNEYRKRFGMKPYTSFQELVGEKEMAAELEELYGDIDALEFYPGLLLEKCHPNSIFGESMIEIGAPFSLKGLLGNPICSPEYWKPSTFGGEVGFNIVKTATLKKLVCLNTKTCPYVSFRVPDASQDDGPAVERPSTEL
- ASSAY_COMMENT: Inhibition of platelet COX1-mediated TXB2 production in LPS-induced human whole blood after 60 mins by radioimmunoassay
ASSAY_METRIC: pIC50
Keep in mind that pIC50 stands for -log10 of concentration in molar terms.

compound Cc1c(CC(=O)OCCO)cc(-c2ccc(S(C)(=O)=O)cc2)n1-c1cccc(F)c1 , pIC50 observed: 4.91

The measured pIC50 associated with Cc1c(CC(=O)OCCO[N+](=O)[O-])cc(-c2ccc(S(C)(=O)=O)cc2)n1-c1cccc(F)c1 reads 5.02
